# RUN DESCRIPTION: in vitro
# TEST CONDITIONS: human, fresh human red blood cells (washed), pH 7.4
Non-standard residues stand in square brackets, D forms with d. Residues, ends and D or L forms follow the SMILES beside them. 2Nal = N[C@@H](Cc1ccc2ccccc2c1)C(=O)O; d2Nal = N[C@H](Cc1ccc2ccccc2c1)C(=O)O
ENDPOINT: HC50 at 0.5 h (µg/mL)
Lab book: enter the figure in µg/mL, no units written.

N=C(N)NCCC[C@H](NC(=O)[C@@H](CCCNC(=N)N)NC(=O)[C@@H](N)CCCNC(=N)N)C(=O)N[C@H](CCCNC(=N)N)C(=O)N[C@@H](Cc1c[nH]c2ccccc12)C(=O)N[C@H](Cc1ccc2ccccc2c1)C(=O)N[C@H](Cc1ccc2ccccc2c1)C(=O)O [IFX-111-1] (H-R[dR]R[dR]W[d2Nal][d2Nal]-OH) = 310

Note: attention shifts to another entry.
Enquiry: Query: HC50 at 0.5 h; subject: N=C(N)NCCC[C@@H]1NC(=O)[C@@H](CCCNC(=N)N)NC(=O)[C@H](CCCNC(=N)N)NC(=O)[C@@H](CCCNC(=N)N)NC(=O)[C@@H](Cc2ccc3ccccc3c2)NC(=O)[C@H](Cc2ccc3ccccc3c2)NC(=O)[C@@H](Cc2ccc3ccccc3c2)NC1=O [IFX-083, c[arg-Arg-arg-Arg-naI-NaI-naI]] (cyclo([dR]R[dR]R[d2Nal][2Nal][d2Nal]))
Return: 170
